Data origin: patent US11739122B2

Measured MIC accompanies every entry in the list below.
# System: MRSA ATCC 700789 VRSA
# test.summary: MIC, broth microdilution
# Assay type: cell-based, Staphylococcus aureus
# condition.summary: MRSA ATCC 700789 VRSA
# Procedure: Determination of Minimal Inhibitory Concentration (MIC) for Vancomycin, Teicoplanin and Tei-Analogs Versus Selected Strains MICs were determined by the broth microdilution method. […] The plates were incubated in 37° C. for 18-24 hours and monitored for the wells of the positive control, where cells grew, and the wells of the negative control, where wells should not grow. The MIC value was determined for the concentration of a test compound, at which there was no visible growth in the well.
metric.name: MIC (µg/mL)

{"smiles.structure": "CC(=O)N[C@H]1[C@H](O[C@@H]2c3ccc(c(Cl)c3)Oc3cc4cc(c3O)Oc3ccc(cc3Cl)C[C@H]3NC(=O)[C@H](N(C)C)c5ccc(O)c(c5)Oc5cc(O)cc(c5)[C@H](NC3=O)C(=O)N[C@H]4C(=O)N[C@H]3C(=O)N[C@@H]2C(=O)N[C@H](C(=O)O)c2cc(O)cc(O)c2-c2cc3ccc2O)O[C@H](CO)[C@@H](O)[C@@H]1O", "unit.of.measure": "µg/mL", "reported.value": 2}
{"smiles.structure": "C#CCCC(=O)N[C@H]1[C@H](O[C@@H]2c3ccc(c(Cl)c3)Oc3cc4cc(c3O)Oc3ccc(cc3Cl)C[C@H]3NC(=O)[C@H](N)c5ccc(O)c(c5)Oc5cc(O)cc(c5)[C@H](NC3=O)C(=O)N[C@H]4C(=O)N[C@H]3C(=O)N[C@@H]2C(=O)N[C@H](C(=O)O)c2cc(O)cc(O)c2-c2cc3ccc2O)O[C@H](CO)[C@@H](O)[C@@H]1O", "unit.of.measure": "µg/mL", "reported.value": 1}
{"smiles.structure": "CCCCCCCC(=O)N[C@H]1[C@H](O[C@@H]2c3ccc(c(Cl)c3)Oc3cc4cc(c3O)Oc3ccc(cc3Cl)C[C@H]3NC(=O)[C@H](N)c5ccc(O)c(c5)Oc5cc(O)cc(c5)[C@H](NC3=O)C(=O)N[C@H]4C(=O)N[C@H]3C(=O)N[C@@H]2C(=O)N[C@H](C(=O)O)c2cc(O)cc(O)c2-c2cc3ccc2O)O[C@H](CO)[C@@H](O)[C@@H]1O", "unit.of.measure": "µg/mL", "reported.value": 0.5}

###

# Tested on: E. faecalis ATCC 29302
# test.summary: MIC, broth microdilution
# Type: cell-based
# condition.summary: EF ATCC 29302

{"molecule": "N[C@H]1C(=O)N[C@@H]2Cc3ccc(c(Cl)c3)Oc3cc4cc(c3O)Oc3ccc(cc3Cl)[C@@H](O[C@@H]3O[C@H](CO)[C@@H](O)[C@H](O)[C@H]3NC(=O)CCc3ccccc3)[C@@H]3NC(=O)[C@H](NC(=O)[C@@H]4NC(=O)[C@@H](NC2=O)c2cc(O)cc(c2)Oc2cc1ccc2O)c1ccc(O)c(c1)-c1c(O)cc(O)cc1[C@@H](C(=O)O)NC3=O", "MIC": "0.25 µg/mL"}
{"molecule": "CCCCCCCC(=O)N[C@H]1[C@H](O[C@@H]2c3ccc(c(Cl)c3)Oc3cc4cc(c3O)Oc3ccc(cc3Cl)C[C@H]3NC(=O)[C@H](N(C)C)c5ccc(O)c(c5)Oc5cc(O)cc(c5)[C@H](NC3=O)C(=O)N[C@H]4C(=O)N[C@H]3C(=O)N[C@@H]2C(=O)N[C@H](C(=O)O)c2cc(O)cc(O)c2-c2cc3ccc2O)O[C@H](CO)[C@@H](O)[C@@H]1O", "MIC": "0.25 µg/mL"}
{"molecule": "N[C@H]1C(=O)N[C@@H]2Cc3ccc(c(Cl)c3)Oc3cc4cc(c3O)Oc3ccc(cc3Cl)[C@@H](O[C@@H]3O[C@H](CO)[C@@H](O)[C@H](O)[C@H]3NC(=O)CCCCc3ccc(F)cc3)[C@@H]3NC(=O)[C@H](NC(=O)[C@@H]4NC(=O)[C@@H](NC2=O)c2cc(O)cc(c2)Oc2cc1ccc2O)c1ccc(O)c(c1)-c1c(O)cc(O)cc1[C@@H](C(=O)O)NC3=O", "MIC": "0.25 µg/mL"}
{"molecule": "CCCCCCCC(=O)NC1C(OC2c3ccc(c(Cl)c3)Oc3cc4cc(c3O)Oc3ccc(cc3Cl)CC3NC(=O)C(N)c5ccc(O)c(c5)Oc5cc(O)cc(c5)C(NC3=O)C(=O)NC4C(=O)NC3C(=O)NC2C(=O)NC(C(=O)O)c2cc(O)cc(OC4OC(CO)C(O)C(O)C4O)c2-c2cc3ccc2O)OC(CO)C(O)C1O (stereo not shown)", "MIC": "0.5 µg/mL"}

###

Measured MIC of individual entries
# Tested on: MRSA ATCC 700789 VRSA
# test.summary: MIC, broth microdilution
# Assay type: cell-based, Staphylococcus aureus
# condition.summary: MRSA ATCC 700789 VRSA

{"smiles.structure": "N[C@H]1C(=O)N[C@@H]2Cc3ccc(c(Cl)c3)Oc3cc4cc(c3O)Oc3ccc(cc3Cl)[C@@H](O[C@@H]3O[C@H](CO)[C@@H](O)[C@H](O)[C@H]3NC(=O)CCCCCc3ccccc3)[C@@H]3NC(=O)[C@H](NC(=O)[C@@H]4NC(=O)[C@@H](NC2=O)c2cc(O)cc(c2)Oc2cc1ccc2O)c1ccc(O)c(c1)-c1c(O)cc(O)cc1[C@@H](C(=O)O)NC3=O", "system.name": "MRSA ATCC 700789 VRSA", "MIC": "0.5 µg/mL"}
{"smiles.structure": "CCCCCCCC(=O)N[C@H]1[C@H](O[C@@H]2c3ccc(c(Cl)c3)Oc3cc4cc(c3O)Oc3ccc(cc3Cl)C[C@H]3NC(=O)[C@H](N(C)C)c5ccc(O)c(c5)Oc5cc(O)cc(c5)[C@H](NC3=O)C(=O)N[C@H]4C(=O)N[C@H]3C(=O)N[C@@H]2C(=O)N[C@H](C(=O)O)c2cc(O)cc(O)c2-c2cc3ccc2O)O[C@H](CO)[C@@H](O)[C@@H]1O", "system.name": "MRSA ATCC 700789 VRSA", "MIC": "0.5 µg/mL"}
{"smiles.structure": "N[C@H]1C(=O)N[C@@H]2Cc3ccc(c(Cl)c3)Oc3cc4cc(c3O)Oc3ccc(cc3Cl)[C@@H](O[C@@H]3O[C@H](CO)[C@@H](O)[C@H](O)[C@H]3NC(=O)CCCCc3ccc(F)cc3)[C@@H]3NC(=O)[C@H](NC(=O)[C@@H]4NC(=O)[C@@H](NC2=O)c2cc(O)cc(c2)Oc2cc1ccc2O)c1ccc(O)c(c1)-c1c(O)cc(O)cc1[C@@H](C(=O)O)NC3=O", "system.name": "MRSA ATCC 700789 VRSA", "MIC": "0.5 µg/mL"}

###

# Tested on: E. faecalis ATCC 29302
# test.summary: MIC, broth microdilution
# Type: cell-based
# condition.summary: EF ATCC 29302
Quick reference for MIC among some compounds
metric.name: MIC (µg/mL)

{"smiles.structure": "CN(C)[C@H]1C(=O)N[C@@H]2Cc3ccc(c(Cl)c3)Oc3cc4cc(c3O)Oc3ccc(cc3Cl)[C@@H](O[C@@H]3O[C@H](CO)[C@@H](O)[C@H](O)[C@H]3NC(=O)CCCCCCCO)[C@@H]3NC(=O)[C@H](NC(=O)[C@@H]4NC(=O)[C@@H](NC2=O)c2cc(O)cc(c2)Oc2cc1ccc2O)c1ccc(O)c(c1)-c1c(O)cc(O)cc1[C@@H](C(=O)O)NC3=O", "metric.name": "MIC", "reported.value": 1}
{"smiles.structure": "N[C@H]1C(=O)N[C@@H]2Cc3ccc(c(Cl)c3)Oc3cc4cc(c3O)Oc3ccc(cc3Cl)[C@@H](O[C@@H]3O[C@H](CO)[C@@H](O)[C@H](O)[C@H]3NC(=O)CCCCCCCCCCCO)[C@@H]3NC(=O)[C@H](NC(=O)[C@@H]4NC(=O)[C@@H](NC2=O)c2cc(O)cc(c2)Oc2cc1ccc2O)c1ccc(O)c(c1)-c1c(O)cc(O)cc1[C@@H](C(=O)O)NC3=O", "metric.name": "MIC", "reported.value": 0.25}
{"smiles.structure": "CC(=O)N[C@H]1[C@H](O[C@@H]2c3ccc(c(Cl)c3)Oc3cc4cc(c3O)Oc3ccc(cc3Cl)C[C@H]3NC(=O)[C@H](N(C)C)c5ccc(O)c(c5)Oc5cc(O)cc(c5)[C@H](NC3=O)C(=O)N[C@H]4C(=O)N[C@H]3C(=O)N[C@@H]2C(=O)N[C@H](C(=O)O)c2cc(O)cc(O)c2-c2cc3ccc2O)O[C@H](CO)[C@@H](O)[C@@H]1O", "metric.name": "MIC", "reported.value": 2}

###

# Test system: VRE ATCC 700425 (vanC)
# test.summary: MIC, broth microdilution
# Format: cell-based, enterococci
# condition.summary: VRE ATCC 700425 (vanC)

{"smiles.structure": "CC(=O)N[C@H]1[C@H](O[C@@H]2c3ccc(c(Cl)c3)Oc3cc4cc(c3O)Oc3ccc(cc3Cl)C[C@H]3NC(=O)[C@H](N(C)C)c5ccc(O)c(c5)Oc5cc(O)cc(c5)[C@H](NC3=O)C(=O)N[C@H]4C(=O)N[C@H]3C(=O)N[C@@H]2C(=O)N[C@H](C(=O)O)c2cc(O)cc(O)c2-c2cc3ccc2O)O[C@H](CO)[C@@H](O)[C@@H]1O", "MIC [µg/mL]": 4}
